# experimental.system: interaction between the recombinant extracellular domain (ECD) of PD-1 and native cell-bound PD-L1 (Homo sapiens, UniProt Q9NZQ7)
# Sequence (Q9NZQ7 19-290): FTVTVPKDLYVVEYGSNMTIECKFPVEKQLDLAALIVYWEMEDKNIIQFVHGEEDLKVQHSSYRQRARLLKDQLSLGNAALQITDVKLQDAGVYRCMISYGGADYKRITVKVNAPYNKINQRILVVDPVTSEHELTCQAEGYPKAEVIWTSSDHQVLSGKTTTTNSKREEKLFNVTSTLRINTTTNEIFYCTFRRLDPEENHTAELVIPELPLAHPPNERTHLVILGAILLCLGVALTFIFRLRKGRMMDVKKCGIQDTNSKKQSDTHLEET
# experimental.protocol: CHO/PD-L1 cell capture assay
# protocol.conditions: CHO cells overexpressing PD-L1, pre-incubated 1 hr with compound, captured on biotinylated Fc-PD-1 coated plates, 75 min at room temperature
measured.attribute: EC50 (nM)

[[record]]
smiles_text = "COc1nc(O[C@H]2CCc3c(-c4cccc5c4CC[C@@H]5Oc4nc(OC)c(CNC[C@@H](O)CC(=O)O)cc4Br)cccc32)c(Br)cc1CNC[C@@H](O)CC(=O)O"
value_observed = 56

[[record]]
smiles_text = "COc1nc(OCc2cccc(-c3cccc(COc4nc(OC)c(CNC[C@@H](O)CC(=O)O)cc4Cl)c3C)c2C)c(Cl)cc1CNC[C@@H](O)CC(=O)O"
value_observed = 218

[[record]]
smiles_text = "COc1nc(O[C@H]2CCc3c(-c4cccc5c4CC[C@@H]5Oc4nc(OC)c(CNC[C@@H](O)CC(=O)O)cc4Br)cccc32)c(Br)cc1CNCCO"
value_observed = 79.7

[[record]]
smiles_text = "COc1nc(OCc2cccc(-c3cccc(COc4nc(OC)c(CNC5(C(=O)O)CC5)cc4Cl)c3C)c2C)c(Cl)cc1CNC1(C(=O)O)CC1"
value_observed = 196

[[record]]
smiles_text = "COc1nc(O[C@H]2CCc3c(-c4cccc5c4CC[C@@H]5Oc4nc(OC)c(CNCCO)cc4Br)cccc32)c(Br)cc1CNCCO"
value_observed = 185

[[record]]
smiles_text = "Cc1c(COc2cc(OCc3cncc(C#N)c3)c(CNC[C@H](O)C(=O)O)cc2Cl)cccc1-c1cccc(COc2cc(OCc3cncc(C#N)c3)c(CNC[C@H](O)C(=O)O)cc2Cl)c1C"
value_observed = 165


[a] COc1nc(OCc2cccc(-c3cccc(COc4nc(OC)c(CN(CCCC(N)=O)CC(=O)O)cc4Br)c3C)c2C)c(Br)cc1CNCCCC(N)=O
[b] COc1nc(OCc2cccc(-c3cccc(COc4nc(OC)c(CNC[C@H](O)C(=O)O)cc4Cl)c3C)c2C)c(Cl)cc1CNC[C@H](O)C(=O)O
[c] CNC(=O)COc1nc(OCc2cccc(-c3cccc(COc4nc(OCC(=O)NC)c(CNC[C@@H](O)CC(=O)O)cc4Br)c3C)c2C)c(Br)cc1CNC[C@@H](O)CC(=O)O
I would appreciate it if you could sort these 3 compounds by EC50, starting from the smallest number. Ranked list of labels, please, in the requested order.
b, c, a
(b: 41.6 nM, c: 117 nM, a: 169 nM)

[P] Cc1c(COc2cc(OCc3cncc(C#N)c3)c(CNC[C@@H](O)CC(=O)O)cc2Cl)cccc1-c1cccc(-c2ccc(OCCNC[C@@H](O)CC(=O)O)c(Cl)c2)c1C
[Q] Cc1c(COc2nc(OCc3cncc(S(C)(=O)=O)c3)c(CN[C@@](C)(CO)C(=O)O)cc2Br)cccc1-c1cccc(COc2nc(OCc3cncc(S(C)(=O)=O)c3)c(CN[C@@](C)(CO)C(=O)O)cc2Br)c1C
Of P versus Q , which is the one with smaller reported EC50? Give the chosen item's label as your response.
P
(P: 10.3 nM, Q: 248 nM)
